Reference source: paper PMC4084651

MEASURED TARGET: SsoRadA (Saccharolobus solfataricus, UniProt Q55075, K120R)
Sequence (Q55075 whole entry K120R): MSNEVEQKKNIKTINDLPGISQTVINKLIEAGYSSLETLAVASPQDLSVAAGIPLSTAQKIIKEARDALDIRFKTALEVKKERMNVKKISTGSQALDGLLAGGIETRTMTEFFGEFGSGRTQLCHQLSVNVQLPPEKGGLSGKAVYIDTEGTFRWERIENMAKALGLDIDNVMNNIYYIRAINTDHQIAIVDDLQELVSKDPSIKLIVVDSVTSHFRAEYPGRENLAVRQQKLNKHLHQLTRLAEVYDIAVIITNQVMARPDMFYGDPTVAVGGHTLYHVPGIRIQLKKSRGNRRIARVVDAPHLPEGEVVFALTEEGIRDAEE
TEST METHOD NOTES: filter binding, saturation binding curve
pKd: −log10 of the molar value.
EXPERIMENTAL ENDPOINT: pKd

INSERT INTO assay_data (mol_smiles, experimental_endpoint, value_reported) VALUES
  ('Nc1ncnc2c1ncn2[C@@H]1O[C@H](COP(=O)(O)OP(=O)(O)OP(=O)(O)O)[C@@H](O)[C@H]1O', 'pKd', 4.23);
